conditions: in n-butanol, 308.15 K
Property Measured: solubility (mole fraction)

// returns reported solubility (mole fraction) for input O=c1[nH]cc(F)c(=O)[nH]1
0.00197

----------
conditions: in water, 323.15 K
Property Measured: solubility (mole fraction)
Lab note: record just the number, no unit beside it.

// returns reported solubility (mole fraction) for input O=c1[nH]cc(F)c(=O)[nH]1
0.00345

----------
settings: in methanol, 293.15 K
Property Measured: solubility (mole fraction)
Lab note: record just the number, no unit beside it.

// returns reported solubility (mole fraction) for input O=c1[nH]cc(F)c(=O)[nH]1
0.0041

----------
conditions: in n-propanol, 293.15 K
Property Measured: solubility (mole fraction)
Lab note: record just the number, no unit beside it.

// returns reported solubility (mole fraction) for input O=c1[nH]cc(F)c(=O)[nH]1
0.00242

----------
conditions: in formic acid, 313.15 K
Property Measured: solubility (mole fraction)
Lab note: record just the number, no unit beside it.

// returns reported solubility (mole fraction) for input O=c1[nH]cc(F)c(=O)[nH]1
0.00147

----------
conditions: in n-propanol, 283.15 K
Property Measured: solubility (mole fraction)
Lab note: record just the number, no unit beside it.

// returns reported solubility (mole fraction) for input O=c1[nH]cc(F)c(=O)[nH]1
0.00184

----------
conditions: in isobutanol, 303.15 K
Property Measured: solubility (mole fraction)
Lab note: record just the number, no unit beside it.

// returns reported solubility (mole fraction) for input O=c1[nH]cc(F)c(=O)[nH]1
0.0012

----------
conditions: in n-butanol, 318.15 K
Property Measured: solubility (mole fraction)
Lab note: record just the number, no unit beside it.

// returns reported solubility (mole fraction) for input O=c1[nH]cc(F)c(=O)[nH]1
0.00269

----------
details: in n-butyric acid, 288.15 K
Property Measured: solubility (mole fraction)
Lab note: record just the number, no unit beside it.

// returns reported solubility (mole fraction) for input O=c1[nH]cc(F)c(=O)[nH]1
0.000296

----------
details: in isopentanol, 318.15 K
Property Measured: solubility (mole fraction)

// returns reported solubility (mole fraction) for input O=c1[nH]cc(F)c(=O)[nH]1
0.00232

----------
conditions: in ethanol, 288.15 K
Property Measured: solubility (mole fraction)
Lab note: record just the number, no unit beside it.

// returns reported solubility (mole fraction) for input O=c1[nH]cc(F)c(=O)[nH]1
0.00224

----------
settings: in ethanol, 303.15 K
Property Measured: solubility (mole fraction)
Lab note: record just the number, no unit beside it.

// returns reported solubility (mole fraction) for input O=c1[nH]cc(F)c(=O)[nH]1
0.00301

----------
conditions: in DMF, 288.15 K
Property Measured: solubility (mole fraction)
Lab note: record just the number, no unit beside it.

// returns reported solubility (mole fraction) for input O=c1[nH]cc(F)c(=O)[nH]1
0.00452

----------
settings: in n-butyric acid, 283.15 K
Property Measured: solubility (mole fraction)

// returns reported solubility (mole fraction) for input O=c1[nH]cc(F)c(=O)[nH]1
0.000247

----------
conditions: in acetic acid, 298.15 K
Property Measured: solubility (mole fraction)

// returns reported solubility (mole fraction) for input O=c1[nH]cc(F)c(=O)[nH]1
0.000722

----------
conditions: in formic acid, 293.15 K
Property Measured: solubility (mole fraction)
Lab note: record just the number, no unit beside it.

// returns reported solubility (mole fraction) for input O=c1[nH]cc(F)c(=O)[nH]1
0.000675
